target: MAPKAPK2 (human); assay: radiometric filter-binding kinase assay; conditions: compound 1.0 µM

# compound, residual activity [%]
records = [
    ("COc1cc2ncn(-c3cc(OCc4ccccc4S(C)(=O)=O)c(C#N)s3)c2cc1OC", 99),
    ("NS(=O)(=O)OC[C@@H]1C[C@@H](n2ccc3c(N[C@H]4CCc5ccccc54)ncnc32)C[C@@H]1O", 88),
    ("CNC(=O)C1[C@H]2O[C@@](C)([C@@H]1N)n1c3ccccc3c3c4c(c5c6ccccc6n2c5c31)C(=O)NC4 (stereo not given in full)", -1),
    ("COc1cc(O)c2c(c1)/C=C/C[C@H](O)[C@H](O)C(=O)/C=C\\C[C@H](C)OC2=O", 79),
    ("Cn1c(=O)c2c(ncn2C)n(C)c1=O", 89),
]

###

molecular target: HIPK3 (human) (UniProt Q9H422); test: radiometric filter-binding kinase assay; conditions: compound 0.1 µM
Sequence (Q9H422 whole entry, looked up): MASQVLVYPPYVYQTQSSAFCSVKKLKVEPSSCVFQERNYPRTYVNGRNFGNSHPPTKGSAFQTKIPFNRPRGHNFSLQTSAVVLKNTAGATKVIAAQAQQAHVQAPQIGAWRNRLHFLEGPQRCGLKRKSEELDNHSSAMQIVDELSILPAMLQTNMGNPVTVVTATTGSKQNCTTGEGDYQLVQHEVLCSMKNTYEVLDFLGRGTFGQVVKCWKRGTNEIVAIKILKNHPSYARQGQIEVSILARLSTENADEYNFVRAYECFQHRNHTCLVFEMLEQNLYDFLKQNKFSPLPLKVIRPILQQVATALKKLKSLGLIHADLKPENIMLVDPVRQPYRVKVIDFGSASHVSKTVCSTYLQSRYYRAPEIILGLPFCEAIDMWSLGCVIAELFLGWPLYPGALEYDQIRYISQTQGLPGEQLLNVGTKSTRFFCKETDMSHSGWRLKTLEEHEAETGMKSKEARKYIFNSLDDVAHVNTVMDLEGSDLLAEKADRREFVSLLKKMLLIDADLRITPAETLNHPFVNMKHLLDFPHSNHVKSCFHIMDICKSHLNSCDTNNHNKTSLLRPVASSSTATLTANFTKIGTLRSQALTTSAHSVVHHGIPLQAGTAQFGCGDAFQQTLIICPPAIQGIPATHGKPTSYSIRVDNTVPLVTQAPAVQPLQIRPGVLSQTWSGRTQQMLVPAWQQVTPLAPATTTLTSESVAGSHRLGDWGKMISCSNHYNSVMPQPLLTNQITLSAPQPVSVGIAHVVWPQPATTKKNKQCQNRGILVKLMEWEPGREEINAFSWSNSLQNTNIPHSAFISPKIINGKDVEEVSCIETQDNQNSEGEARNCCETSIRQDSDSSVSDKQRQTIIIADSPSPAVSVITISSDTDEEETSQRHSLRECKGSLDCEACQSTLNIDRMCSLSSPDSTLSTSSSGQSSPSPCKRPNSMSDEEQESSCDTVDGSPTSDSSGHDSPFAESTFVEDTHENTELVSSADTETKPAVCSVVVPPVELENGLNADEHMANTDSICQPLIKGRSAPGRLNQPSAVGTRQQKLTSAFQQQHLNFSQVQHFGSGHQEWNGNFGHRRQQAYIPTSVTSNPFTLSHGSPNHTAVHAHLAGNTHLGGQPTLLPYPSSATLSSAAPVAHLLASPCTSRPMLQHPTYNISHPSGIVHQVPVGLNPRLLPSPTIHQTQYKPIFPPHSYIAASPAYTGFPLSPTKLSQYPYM

# entrySmiles, residual activity / %
data = [
    ("O=C(NCCCNc1nc(Nc2cccc(CN3CCOCC3)c2)ncc1C1CC1)C1CCC1", 91),
    ("COc1cc(O)c2c(c1)/C=C/C[C@H](O)[C@H](O)C(=O)/C=C\\C[C@H](C)OC2=O", 90),
    ("O=C(Nc1ccccc1-c1cn2c(CN3CCNCC3)csc2n1)c1cnc2ccccc2n1", 88),
]

###

biological target: GCK (human); assay: radiometric filter-binding kinase assay; conditions: compound 1.0 µM
Recorded residual activity values for a group of compounds are listed next.

# compound, resultUnits, residual activity
measured = [
    ("C=CC(=O)N1CCC[C@@H](n2nc(-c3ccc(Oc4ccccc4)cc3)c3c(N)ncnc32)C1", "%", 77),
    ("Cc1nc(-c2ccc(OCC(C)C)c(C#N)c2)sc1C(=O)O", "%", 85),
    ("Cc1ccc(Sc2cnc(Nc3cccc(Br)n3)s2)cc1C(=O)N1CCN(C(=O)CN)CC1", "%", 93),
    ("CCn1c(-c2nonc2N)nc2cncc(CNC3CCNCC3)c21", "%", 94),
    ("COc1cc(C(=O)N2CCOCC2)c(F)cc1Nc1ncc(C(F)(F)F)c(NC2CC2)n1", "%", 73),
    ("COc1cc(O)c2c(c1)[C@H]1OC1C[C@H](O)[C@H](O)C(=O)/C=C\\C[C@H](C)OC2=O (some centres undefined)", "%", 97),
    ("Nc1cccc2c1CN(C1CCC(=O)NC1=O)C2=O (centres undefined)", "%", 103),
    ("O=C(Nc1nc2cc(C(F)(F)F)cc(NC3CC3)n2n1)c1cccnc1", "%", 108),
    ("O=C(N[C@@H](COc1ccc2[nH]c(=O)[nH]c2c1)c1ccccc1)c1cccn(Cc2ccc(F)c(F)c2)c1=O", "%", 101),
    ("CC1=C(CO)C(=O)O[C@@H]([C@@H](C)[C@H]2CC[C@H]3[C@@H]4C[C@H]5O[C@]56[C@@H](O)C=CC(=O)[C@]6(C)C4CC[C@]23C)C1 (some centres undefined)", "%", 106),
    ("O=C(NOC[C@H](O)CO)c1ccc(F)c(F)c1Nc1ccc(I)cc1Cl", "%", 90),
    ("CCNc1nc(Nc2cc(F)c(C(=O)N3CCOCC3)cc2OC)ncc1C(F)(F)F", "%", 88),
    ("O=C(Nc1ccccc1-c1cn2c(CN3CCNCC3)csc2n1)c1cnc2ccccc2n1", "%", 102),
    ("NC(=O)c1ccc(-c2ccc(Oc3cncc4sc(-c5nn[nH]n5)cc34)cc2)cc1", "%", 78),
]

###

target: IGF1R (human) (UniProt P08069); experiment: radiometric filter-binding kinase assay; details: compound 1.0 µM
Sequence (P08069 whole entry, looked up): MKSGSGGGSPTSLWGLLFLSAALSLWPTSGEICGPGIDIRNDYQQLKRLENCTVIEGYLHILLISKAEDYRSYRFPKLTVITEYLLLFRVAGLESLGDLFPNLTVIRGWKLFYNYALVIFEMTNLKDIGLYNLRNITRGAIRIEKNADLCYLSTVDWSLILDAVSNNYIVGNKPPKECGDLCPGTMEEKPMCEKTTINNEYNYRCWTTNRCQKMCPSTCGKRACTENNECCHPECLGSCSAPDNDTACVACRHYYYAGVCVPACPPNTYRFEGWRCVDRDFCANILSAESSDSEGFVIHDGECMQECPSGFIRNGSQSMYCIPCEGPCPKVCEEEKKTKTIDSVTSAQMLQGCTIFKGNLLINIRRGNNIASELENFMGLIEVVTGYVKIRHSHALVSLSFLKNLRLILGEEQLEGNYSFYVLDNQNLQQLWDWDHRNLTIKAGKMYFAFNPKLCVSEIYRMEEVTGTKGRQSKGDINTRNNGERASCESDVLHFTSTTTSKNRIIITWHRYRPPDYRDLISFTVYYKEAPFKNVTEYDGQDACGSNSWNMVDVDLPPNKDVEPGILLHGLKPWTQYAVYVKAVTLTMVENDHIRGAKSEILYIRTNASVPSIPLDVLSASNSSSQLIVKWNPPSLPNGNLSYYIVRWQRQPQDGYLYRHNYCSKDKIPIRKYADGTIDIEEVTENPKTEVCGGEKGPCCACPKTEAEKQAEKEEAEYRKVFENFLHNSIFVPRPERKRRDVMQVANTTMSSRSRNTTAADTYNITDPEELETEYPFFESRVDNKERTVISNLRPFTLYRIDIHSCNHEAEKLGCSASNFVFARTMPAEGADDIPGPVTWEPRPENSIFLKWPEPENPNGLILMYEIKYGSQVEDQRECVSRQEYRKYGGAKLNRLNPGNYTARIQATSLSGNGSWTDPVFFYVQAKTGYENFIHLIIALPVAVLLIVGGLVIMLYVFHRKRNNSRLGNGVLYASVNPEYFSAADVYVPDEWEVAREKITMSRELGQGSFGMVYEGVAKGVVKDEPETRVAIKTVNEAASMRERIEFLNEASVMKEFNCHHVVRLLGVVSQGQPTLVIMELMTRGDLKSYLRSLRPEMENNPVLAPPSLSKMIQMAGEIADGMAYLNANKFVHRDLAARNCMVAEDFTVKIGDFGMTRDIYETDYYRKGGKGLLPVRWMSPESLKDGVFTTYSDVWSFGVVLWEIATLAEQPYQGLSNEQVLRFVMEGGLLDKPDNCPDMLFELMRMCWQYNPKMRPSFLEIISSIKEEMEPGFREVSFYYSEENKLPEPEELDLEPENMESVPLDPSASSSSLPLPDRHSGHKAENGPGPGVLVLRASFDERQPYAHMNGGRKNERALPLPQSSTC
Recorded residual activity values for a group of molecules are listed next.

# molecule, subjectOfTest, residual activity / %
data = [
    ("O=C(N[C@@H](COc1ccc2[nH]c(=O)[nH]c2c1)c1ccccc1)c1cccn(Cc2ccc(F)c(F)c2)c1=O", "IGF1R (human) (UniProt P08069)", 105),
    ("NC(=O)c1ccc(-c2ccc(Oc3cncc4sc(-c5nn[nH]n5)cc34)cc2)cc1", "IGF1R (human) (UniProt P08069)", 107),
    ("Cc1cc(SCc2sc(-c3ccc(C(F)(F)F)cc3)nc2C)ccc1OCC(=O)O", "IGF1R (human) (UniProt P08069)", 87),
    ("O=C(NOC[C@H](O)CO)c1ccc(F)c(F)c1Nc1ccc(I)cc1Cl", "IGF1R (human) (UniProt P08069)", 88),
    ("O=C1NC(=S)N[C@@H]1Cc1c[nH]c2ccccc12", "IGF1R (human) (UniProt P08069)", 113),
    ("NC(=O)Nc1ccc2c(c1)/C(=C/c1cc(-c3cccnc3)c[nH]1)C(=O)N2", "IGF1R (human) (UniProt P08069)", 33),
    ("C=C1C(=O)OC2C1CC/C(C)=C/CCC1(C)OC21 (centres undefined)", "IGF1R (human) (UniProt P08069)", 120),
    ("FC(F)(F)c1ccc(-c2ccc(Oc3cncc4sc(-c5nn[nH]n5)cc34)cc2)cc1", "IGF1R (human) (UniProt P08069)", 74),
    ("O=c1c(O)c(-c2ccc(O)c(O)c2)oc2cc(O)c(O)c(O)c12", "IGF1R (human) (UniProt P08069)", 96),
    ("C=CC(=O)N1CCC[C@@H](n2nc(-c3ccc(Oc4ccccc4)cc3)c3c(N)ncnc32)C1", "IGF1R (human) (UniProt P08069)", 93),
    ("O=C1Nc2nc(-c3c(O)cccc3OCC3CC3)cc(C3CCCNC3)c2CO1 (centres undefined)", "IGF1R (human) (UniProt P08069)", 80),
    ("c1ccc2c(-c3cnn4cc(-c5ccc(N6CCNCC6)cc5)cnc34)ccnc2c1", "IGF1R (human) (UniProt P08069)", 99),
    ("NC(=O)c1cc(-c2ccnc(NC3CCCCC3)c2)nc(N2CCNCC2)c1", "IGF1R (human) (UniProt P08069)", 102),
    ("O=C(NOCC(O)CO)c1ccc(F)c(F)c1Nc1ccc(I)cc1Cl (centres undefined)", "IGF1R (human) (UniProt P08069)", 76),
    ("Cc1ccc(-c2ccc3c(ccc4sc5c(c43)NC[C@@H](C)NC5=O)n2)cn1", "IGF1R (human) (UniProt P08069)", 108),
    ("Cn1c(=O)c2c(ncn2C)n(C)c1=O", "IGF1R (human) (UniProt P08069)", 94),
    ("CN1C(=O)[C@@H](Cc2c[nH]c3ccccc23)NC1=S", "IGF1R (human) (UniProt P08069)", 86),
    ("Cc1cc(NC(=O)c2cccc(NC(=O)/C=C/CN(C)C)c2)ccc1Nc1nccc(-c2cccnc2)n1", "IGF1R (human) (UniProt P08069)", 87),
    ("COc1ccc(-n2ncc3cnc(Nc4cc(OC)c(OC)c(OCCCN5CCN(C)CC5)c4)nc32)cc1", "IGF1R (human) (UniProt P08069)", 6),
    ("NC1(c2ccc(-c3nc4ccn5c(=O)[nH]nc5c4cc3-c3ccccc3)cc2)CCC1", "IGF1R (human) (UniProt P08069)", 85),
    ("N#Cc1c(C2CCNCC2)cc(-c2c(O)cccc2OCC2CC2)nc1N", "IGF1R (human) (UniProt P08069)", 86),
    ("Nc1cccc2c1CN(C1CCC(=O)NC1=O)C2=O (centres undefined)", "IGF1R (human) (UniProt P08069)", 106),
    ("Oc1ccc2ccccc2c1SSc1c(O)ccc2ccccc12", "IGF1R (human) (UniProt P08069)", 87),
    ("NC(=O)c1c(NC(=O)C2CC2)sc2c1CCCC2", "IGF1R (human) (UniProt P08069)", 86),
    ("Cc1nc(-c2ccc(OCC(C)C)c(C#N)c2)sc1C(=O)O", "IGF1R (human) (UniProt P08069)", 93),
    ("CN(C)C/C=C/C(=O)Nc1cccc(C(=O)Nc2ccc(Nc3nccc(-c4cccnc4)n3)cc2)c1", "IGF1R (human) (UniProt P08069)", 102),
    ("COc1cc(O)c2c(c1)/C=C/C[C@H](O)[C@H](O)C(=O)/C=C\\C[C@H](C)OC2=O", "IGF1R (human) (UniProt P08069)", 93),
    ("NC(=O)c1cc2c(-c3cccc(-c4ccccc4)c3)cnc(N)c2s1", "IGF1R (human) (UniProt P08069)", 87),
    ("CCc1cncnc1N1CCN(Cc2nc3cc(C(F)(F)F)ccc3[nH]2)CC1", "IGF1R (human) (UniProt P08069)", 95),
    ("Cc1ccc(=O)n(-c2ccccc2)c1", "IGF1R (human) (UniProt P08069)", 105),
    ("COc1cc2ncn(-c3cc(OCc4ccccc4S(C)(=O)=O)c(C#N)s3)c2cc1OC", "IGF1R (human) (UniProt P08069)", 89),
    ("O=C(O)c1ccc(-c2c[nH]c3ncc(-c4ccccc4)cc23)cc1C1CCCC1", "IGF1R (human) (UniProt P08069)", 103),
    ("CNC(=O)C1[C@H]2O[C@@](C)([C@@H]1N)n1c3ccccc3c3c4c(c5c6ccccc6n2c5c31)C(=O)NC4 (some centres undefined)", "IGF1R (human) (UniProt P08069)", 3),
    ("CNc1nc(-c2ccc3c(N)n[nH]c3c2)cc(N2C[C@@H](C(=O)NC3CCCCC3)CC[C@H]2C)n1", "IGF1R (human) (UniProt P08069)", 98),
]
